- ASSAY METHOD TEXT: reduced mouse 2C T cell binding to pMHC/ICAM-1 vesicles – MLPCN validation set, flow cytometry, LFA-1/ICAM-1 modulator project, pilot screen (AID 2523)
- CONDITION PARAMETERS: 2C mouse CD8+ T cells, at 7 µM, stronger effect = lower value; measured here: CD8+/vesicle+ event percentage
Param label: returns 1.0 when double positive events < 60%, returns 0.0 otherwise, including exact equality.

Examples from the recorded data:
CSc1cccc(NC(=O)/C=C/c2ccccc2)c1 | 0.0
O=C(NCc1ccc(N2CCCC2=O)cc1)c1cccc(Cl)c1 | 1.0
N#Cc1cc2c([nH]c1=O)CCCC2 | 0.0

[Q] Quick check: double positive events of `COC(=O)C1=C(C)N(Cc2ccco2)C(=O)/C1=C\c1ccc([N+](=O)[O-])cc1` under 60%?
[A] 0.0
